Values compiled from the supplement of paper PMC10567573.

B1: RPS21 (parent)
chain: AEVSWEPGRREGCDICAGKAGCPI

Variants of: B1
ASSAY_PROTOCOL: protein stability index of a GFP-peptide fusion (GPS, HEK-293T) (PSI 1-6); higher = more stable;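 note: lentivirally expressed fusions sorted by FACS into six bins by GFP to DsRed ratio, PSI derived from sequencing read proportions per bin multiplied by bin number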
MEASUREMENT_CONDITIONS: c terminus: a fixed tail appended

RECORD_SEQUENCE: AEVSWEPGRREGCDICAGKAGCKI [P23K]
protein stability index: 3.04

RECORD_SEQUENCE: AEVSWEPKRREGCDICAGKAGCPI [G8K]
protein stability index: 3.03

RECORD_SEQUENCE: AEQSWEPGRREGCDICAGKAGCPI [V3Q]
protein stability index: 3.17

RECORD_SEQUENCE: AEVMWEPGRREGCDICAGKAGCPI [S4M]
protein stability index: 1.58

RECORD_SEQUENCE: AEVSWPPGRREGCDICAGKAGCPI [E6P]
protein stability index: 3

RECORD_SEQUENCE: AEVSWEPGRREGCDICAGKAYCPI [G21Y]
protein stability index: 3.56

RECORD_SEQUENCE: AEVSWEPGRREGCDITAGKAGCPI [C16T]
protein stability index: 2.97

RECORD_SEQUENCE: AEVSWEPYRREGCDICAGKAGCPI [G8Y]
protein stability index: 1.74

RECORD_SEQUENCE: AEVSWEPGRREGCDICAWKAGCPI [G18W]
protein stability index: 2.74

RECORD_SEQUENCE: AEVYWEPGRREGCDICAGKAGCPI [S4Y]
protein stability index: 2.92

RECORD_SEQUENCE: AEVSWEPGRREGCDICVGKAGCPI [A17V]
protein stability index: 3.14

RECORD_SEQUENCE: AEVSWEPGRFEGCDICAGKAGCPI [R10F]
protein stability index: 2.46

RECORD_SEQUENCE: AEVSWEPHRREGCDICAGKAGCPI [G8H]
protein stability index: 2.54

RECORD_SEQUENCE: AEVSWEPGRREWCDICAGKAGCPI [G12W]
protein stability index: 4.38

RECORD_SEQUENCE: AEVSWEPGRREGCDWCAGKAGCPI [I15W]
protein stability index: 3.74
